test-system: SIRT1 (Homo sapiens)
measurement-protocol: Mass spectrometry based assay to identify modulators of SIRT1 activity (deacetylation of p53-based acetylated peptide)
Format: biochemical
run-parameters: 10 nM SIRT1, 0.5 μM peptide substrate, 120 μM βNAD+, 25 minutes at 25° C.
measurement-name: % Fold Act. (percent maximum fold activation)

The following compounds have reported results that may help.
# compound, test-system, result
data = [
    ("Cn1c(-c2cccc(C(F)(F)F)c2)nc2c(NC(=O)c3cccc(N4CCOCC4)n3)cccc2c1=O [Compound 341]", "SIRT1 (Homo sapiens)", "A (Fold activation>200%)"),
    ("Cn1c(-c2cccc(C(F)(F)F)c2)nc2c(NC(=O)c3cccc(N4CCCC4)c3)cccc2c1=O [Compound 337]", "SIRT1 (Homo sapiens)", "B (Fold Activation<200%)"),
    ("Cn1c(-c2cnccn2)nc2c(NC(=O)c3cnccn3)cccc2c1=O [Compound 281]", "SIRT1 (Homo sapiens)", "B (Fold Activation<200%)"),
    ("O=C(Nc1ccccn1)c1cccc2c(=O)[nH]c(-c3ccccc3OC(F)(F)F)nc12 [Compound 320]", "SIRT1 (Homo sapiens)", "A (Fold activation>200%)"),
]

# evaluate next
Req: Field request: % Fold Act. (percent maximum fold activation) | item: Cn1c(-c2cccc(C(F)(F)F)c2)nc2c(C(=O)Nc3ccnc(CN4CCNCC4)n3)cccc2c1=O [Compound 347]
Resp: A (Fold activation>200%)

----------
test-system: SIRT1 (Homo sapiens, UniProt Q96EB6)
Sequence (Q96EB6 whole entry): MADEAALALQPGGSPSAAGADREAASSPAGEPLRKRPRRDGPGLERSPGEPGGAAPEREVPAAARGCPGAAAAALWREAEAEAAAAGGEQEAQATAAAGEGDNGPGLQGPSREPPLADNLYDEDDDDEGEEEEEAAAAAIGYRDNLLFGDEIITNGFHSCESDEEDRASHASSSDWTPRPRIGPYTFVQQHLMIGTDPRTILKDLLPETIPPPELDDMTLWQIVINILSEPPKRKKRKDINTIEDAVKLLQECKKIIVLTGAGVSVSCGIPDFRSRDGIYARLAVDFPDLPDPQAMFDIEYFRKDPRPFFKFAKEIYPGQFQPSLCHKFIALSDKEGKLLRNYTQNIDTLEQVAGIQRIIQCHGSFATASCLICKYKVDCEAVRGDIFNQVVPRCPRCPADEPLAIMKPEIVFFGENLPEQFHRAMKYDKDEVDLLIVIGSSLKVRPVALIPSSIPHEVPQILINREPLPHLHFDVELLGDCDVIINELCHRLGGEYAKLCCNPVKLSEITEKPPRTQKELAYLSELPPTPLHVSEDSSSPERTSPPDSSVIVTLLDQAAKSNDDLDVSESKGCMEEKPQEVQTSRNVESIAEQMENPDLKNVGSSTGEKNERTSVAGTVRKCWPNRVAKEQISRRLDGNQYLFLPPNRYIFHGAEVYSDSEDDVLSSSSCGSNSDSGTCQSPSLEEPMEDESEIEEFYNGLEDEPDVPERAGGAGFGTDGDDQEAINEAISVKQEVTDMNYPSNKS
measurement-protocol: Mass spectrometry based assay to identify modulators of SIRT1 activity (deacetylation of p53-based acetylated peptide)
Assay type: biochemical
run-parameters: 10 nM SIRT1, 0.5 μM peptide substrate, 120 μM βNAD+, 25 minutes at 25° C.
measurement-name: % Fold Act. (percent maximum fold activation)

The following compounds have reported results that may help.
# compound, result
rows = [
    ("O=C(Nc1cccc2c(=O)cc(-c3cccc(C(F)(F)F)c3)[nH]c12)c1cncnc1 [Compound 421]", "A (Fold activation>200%)"),
    ("Cn1c(-c2cccc(C(F)(F)F)c2)nc2c(C(=O)Nc3cccc(CN4CCOCC4)n3)cccc2c1=O [Compound 344]", "A (Fold activation>200%)"),
    ("Cn1c(-c2cccc(C(F)(F)F)c2)nc2c(NC(=O)c3cccc(CN4CCCC4)n3)cccc2c1=O [Compound 333]", "A (Fold activation>200%)"),
    ("Cn1c(-c2ccc(S(C)(=O)=O)cc2)nc2c(C(=O)Nc3ccccn3)cccc2c1=O [Compound 215]", "B (Fold Activation<200%)"),
    ("Cn1c(-c2cccc(C(F)(F)F)c2)nc2c(C(=O)Nc3nc(CN4CCNCC4)cs3)cccc2c1=O [Compound 366]", "A (Fold activation>200%)"),
    ("Cn1ccnc1-c1nc2c(NC(=O)c3cnccn3)cccc2c(=O)n1C [Compound 289]", "B (Fold Activation<200%)"),
    ("Cn1c(-c2cccc(OC(F)(F)F)c2)nc2c(C(=O)Nc3nccs3)cccc2c1=O [Compound 200]", "B (Fold Activation<200%)"),
    ("Cn1c(-c2cccc(C(F)(F)F)c2)nc2c(NC(=O)c3cccnc3OCC(O)CO)cccc2c1=O (stereo not drawn) [Compound 334]", "A (Fold activation>200%)"),
    ("Cn1c(-c2cccc(C(F)(F)F)c2)nc2c(NC(=O)c3cocn3)cccc2c1=O [Compound 250]", "B (Fold Activation<200%)"),
    ("O=C(Nc1ccccn1)c1cccc2c(=O)[nH]c(-c3ccccc3C(F)(F)F)nc12 [Compound 321]", "A (Fold activation>200%)"),
]

Req: Notebook: pull reported % Fold Act. (percent maximum fold activation) for SIRT1 (Homo sapiens, UniProt Q96EB6), entry Cn1c(-c2cccc(C(F)(F)F)c2)nc2c(NC(=O)C3CCCC(=O)N3)cccc2c1=O (stereo not drawn) [Compound 365]
Resp: A (Fold activation>200%)

Req: Notebook: pull reported % Fold Act. (percent maximum fold activation) for SIRT1 (Homo sapiens, UniProt Q96EB6), entry Cn1c(-c2cscn2)nc2c(NC(=O)c3cnccn3)cccc2c1=O [Compound 283]
Resp: B (Fold Activation<200%)

Req: Notebook: pull reported % Fold Act. (percent maximum fold activation) for SIRT1 (Homo sapiens, UniProt Q96EB6), entry Cn1c(-c2cccc(C(F)(F)F)c2)nc2c(NC(=O)c3cncc(N4CCOCC4)n3)cccc2c1=O [Compound 336]
Resp: A (Fold activation>200%)

Req: Notebook: pull reported % Fold Act. (percent maximum fold activation) for SIRT1 (Homo sapiens, UniProt Q96EB6), entry Cn1c(-c2cccc(C(F)(F)F)c2)nc2c(C(=O)Nc3cncc(CN4CCOCC4)c3)cccc2c1=O [Compound 300]
Resp: A (Fold activation>200%)

Req: Notebook: pull reported % Fold Act. (percent maximum fold activation) for SIRT1 (Homo sapiens, UniProt Q96EB6), entry Cn1c(-c2cccc(C(F)(F)F)c2)nc2c(NC(=O)c3ccccn3)cccc2c1=O [Compound 239]
Resp: A (Fold activation>200%)

These measurements were taken from patent US9326986B2.
